target: UniProtKB P35398; test: inhibitors of orphan receptor RORA activity – cell-based, counter-screen for SF-1 inhibitor project, dose response (AID 599); conditions: cell-based RORA reporter inhibition
Sequence (P35398 whole entry, looked up): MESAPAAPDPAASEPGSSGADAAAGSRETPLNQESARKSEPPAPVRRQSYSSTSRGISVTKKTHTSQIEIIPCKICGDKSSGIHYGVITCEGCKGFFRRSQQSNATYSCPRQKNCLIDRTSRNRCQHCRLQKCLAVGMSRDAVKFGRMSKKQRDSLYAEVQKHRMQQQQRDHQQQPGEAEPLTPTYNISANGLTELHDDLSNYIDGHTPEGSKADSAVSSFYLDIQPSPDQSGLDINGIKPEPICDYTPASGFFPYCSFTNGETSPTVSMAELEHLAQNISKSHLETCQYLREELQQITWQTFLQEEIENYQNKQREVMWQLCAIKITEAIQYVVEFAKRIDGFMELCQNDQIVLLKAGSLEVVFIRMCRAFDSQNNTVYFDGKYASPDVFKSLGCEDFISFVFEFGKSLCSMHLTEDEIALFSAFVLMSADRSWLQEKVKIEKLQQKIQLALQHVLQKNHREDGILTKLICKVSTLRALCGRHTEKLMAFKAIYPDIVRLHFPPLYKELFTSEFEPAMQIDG
Activity calls are given as the source filed them. How the calls were made is not given here.
Thanks in advance; please answer with one of these: 1 for active, 0 for inactive

Name the outcome recorded for Cc1ccc(C(=O)/C=C/Nc2ccccn2)cc1 in the assay. 0

Name the outcome recorded for N#CC1=C(N)C(C#N)(C#N)[C@H](c2ccncc2)[C@H]2CN(C(=O)OCc3ccccc3)CC=C12 in the assay. 0

Name the outcome recorded for O=C(/C=C\Nc1ccccn1)c1ccc(Cl)cc1 in the assay. 1

Name the outcome recorded for CCOC(=O)C1=C(Cn2cnc3ccccc32)NC(=O)NC1c1cc(C)ccc1C (stereo unspecified) in the assay. 0

Name the outcome recorded for O=C(/C=C\Nc1ccc2c(c1)OCO2)c1ccccn1 in the assay. 0

Name the outcome recorded for CCN(CC)c1ccc2c(c1)OC(N)=C(C#N)C2c1cccnc1 (stereo unspecified) in the assay. 0

Recorded values, source PubChem BioAssay AID599.
